Tested on: BxPC3 cells
ASSAY: Histone acetylation in BxPC3 cells after drug treatment
Type: cell-based, human
ASSAY CONDITIONS: read-out: apparent IC50 of inhibition; site H3K18; 4 hours
METRIC NAME: IC50

[[record]]
molecule = "CC1=NN(c2ccc(C(=O)O)cc2)C(=O)/C1=C\\c1ccc(-c2cc(C)c(C)cc2[N+](=O)[O-])o1 [C646]"
observed_result = "~6.8 µM"

